TARGET OR SYSTEM: Fes (UniProt P07332)
Sequence (P07332 whole entry, looked up): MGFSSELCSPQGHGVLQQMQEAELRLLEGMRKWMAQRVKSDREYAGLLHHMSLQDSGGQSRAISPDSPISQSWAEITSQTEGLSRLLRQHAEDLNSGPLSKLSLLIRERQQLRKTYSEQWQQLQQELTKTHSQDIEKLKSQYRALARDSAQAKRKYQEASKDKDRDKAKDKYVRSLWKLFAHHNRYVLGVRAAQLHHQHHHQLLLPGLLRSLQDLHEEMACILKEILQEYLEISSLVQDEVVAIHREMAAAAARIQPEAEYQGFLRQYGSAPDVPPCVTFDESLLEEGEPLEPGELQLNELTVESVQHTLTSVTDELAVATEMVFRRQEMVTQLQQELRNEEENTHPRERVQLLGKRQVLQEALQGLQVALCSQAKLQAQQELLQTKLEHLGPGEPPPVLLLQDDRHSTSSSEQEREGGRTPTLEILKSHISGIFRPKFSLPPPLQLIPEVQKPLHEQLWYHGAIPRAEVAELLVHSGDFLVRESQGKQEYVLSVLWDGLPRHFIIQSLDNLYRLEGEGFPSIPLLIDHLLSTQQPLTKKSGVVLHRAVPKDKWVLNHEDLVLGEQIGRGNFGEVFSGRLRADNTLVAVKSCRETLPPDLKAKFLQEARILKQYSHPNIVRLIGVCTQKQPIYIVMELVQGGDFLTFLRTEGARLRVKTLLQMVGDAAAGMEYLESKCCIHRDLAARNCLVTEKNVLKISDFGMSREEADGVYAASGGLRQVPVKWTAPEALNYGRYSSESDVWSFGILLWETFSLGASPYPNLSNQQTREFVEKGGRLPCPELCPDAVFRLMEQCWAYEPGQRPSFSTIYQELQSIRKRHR
ASSAY INFO: phosphorylation enrichment, bacterial display (enrichment ratio); higher = better substrate or ligand; peptides without Tyr show the background;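 also: 11-residue human phosphosite peptides and single-mutation variants displayed on the E. coli surface, counted by deep sequencing, each peptide's frequency after selection divided by its frequency in the unselected input library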;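 also: frequency after pTyr selection over input frequency; kinase dosed for 20-30% of maximal phosphorylation in three min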
Rule: criterion met for phosphorylation enrichment not less than 0.9, criterion not met for anything less.

Query: Can VHSGTYQVTVR [MYBPC3_Y1043] be said to have phosphorylation enrichment at or above 0.9?
Reply: criterion not met

Query: Can SLEKSYELLDG [ACTB_Y240_P243L] be said to have phosphorylation enrichment at or above 0.9?
Reply: criterion met

Query: Can RPDSPYSRPHD [DOK2_Y271] be said to have phosphorylation enrichment at or above 0.9?
Reply: criterion not met

Query: Can FGYPGYQCKHY [TIMP3_Y177_S179C] be said to have phosphorylation enrichment at or above 0.9?
Reply: criterion not met

Query: Can ANNPLYKEATS [ITGB3_Y773] be said to have phosphorylation enrichment at or above 0.9?
Reply: criterion not met

Query: Can VDSNPYSHLMA [UBA5_Y53_R55H] be said to have phosphorylation enrichment at or above 0.9?
Reply: criterion not met

Query: Can SLDHPYEKPRK [INAVA_Y333] be said to have phosphorylation enrichment at or above 0.9?
Reply: criterion not met

Query: Can MKKMHYVDPDR [ST3GAL5_Y99_H104R] be said to have phosphorylation enrichment at or above 0.9?
Reply: criterion not met

Query: Can KSLFHYRQFSA [CPS1_Y1491_YF] be said to have phosphorylation enrichment at or above 0.9?
Reply: criterion not met

Query: Can LKDEDYLKDTV [HAUS3_Y582_I586T] be said to have phosphorylation enrichment at or above 0.9?
Reply: criterion met

Query: Can PFTRNYYVWAV [CYBA_Y87_R90W] be said to have phosphorylation enrichment at or above 0.9?
Reply: criterion met

Query: Can EFFENYIEELK [PARP4_Y218_F215Y_YF] be said to have phosphorylation enrichment at or above 0.9?
Reply: criterion met

Query: Can FTGDIYSNSNL [LZTR1_Y141_YF] be said to have phosphorylation enrichment at or above 0.9?
Reply: criterion not met

Query: Can HSKGIYFVQLE [MGAT4B_Y262_Q257H_YF] be said to have phosphorylation enrichment at or above 0.9?
Reply: criterion met

Query: Can NDDDVYRSLEE [VAV2_Y142] be said to have phosphorylation enrichment at or above 0.9?
Reply: criterion met

Query: Can KDHPDYKFQRR [SOX10_Y171_P175R_YF] be said to have phosphorylation enrichment at or above 0.9?
Reply: criterion not met

Query: Can SIKDKHVTALF [KCNH2_Y611_Y611H_YF] be said to have phosphorylation enrichment at or above 0.9?
Reply: criterion not met

Query: Can RNIQQYNSFVS [PRKAR1A_Y373] be said to have phosphorylation enrichment at or above 0.9?
Reply: criterion not met

Query: Can KCCCIYEKPRA [PPP1R11_Y64] be said to have phosphorylation enrichment at or above 0.9?
Reply: criterion met

Query: Can ADRNHYRRYPR [YBX1_Y145] be said to have phosphorylation enrichment at or above 0.9?
Reply: criterion not met

Query: Can KNSFKYYMSDD [ATRX_Y203_C200S] be said to have phosphorylation enrichment at or above 0.9?
Reply: criterion met

* * *

So I've got a bunch of sequences here, and I need their phosphorylation enrichment values.
TARGET OR SYSTEM: EPHB1 (UniProt P54762)
Sequence (P54762 whole entry, looked up): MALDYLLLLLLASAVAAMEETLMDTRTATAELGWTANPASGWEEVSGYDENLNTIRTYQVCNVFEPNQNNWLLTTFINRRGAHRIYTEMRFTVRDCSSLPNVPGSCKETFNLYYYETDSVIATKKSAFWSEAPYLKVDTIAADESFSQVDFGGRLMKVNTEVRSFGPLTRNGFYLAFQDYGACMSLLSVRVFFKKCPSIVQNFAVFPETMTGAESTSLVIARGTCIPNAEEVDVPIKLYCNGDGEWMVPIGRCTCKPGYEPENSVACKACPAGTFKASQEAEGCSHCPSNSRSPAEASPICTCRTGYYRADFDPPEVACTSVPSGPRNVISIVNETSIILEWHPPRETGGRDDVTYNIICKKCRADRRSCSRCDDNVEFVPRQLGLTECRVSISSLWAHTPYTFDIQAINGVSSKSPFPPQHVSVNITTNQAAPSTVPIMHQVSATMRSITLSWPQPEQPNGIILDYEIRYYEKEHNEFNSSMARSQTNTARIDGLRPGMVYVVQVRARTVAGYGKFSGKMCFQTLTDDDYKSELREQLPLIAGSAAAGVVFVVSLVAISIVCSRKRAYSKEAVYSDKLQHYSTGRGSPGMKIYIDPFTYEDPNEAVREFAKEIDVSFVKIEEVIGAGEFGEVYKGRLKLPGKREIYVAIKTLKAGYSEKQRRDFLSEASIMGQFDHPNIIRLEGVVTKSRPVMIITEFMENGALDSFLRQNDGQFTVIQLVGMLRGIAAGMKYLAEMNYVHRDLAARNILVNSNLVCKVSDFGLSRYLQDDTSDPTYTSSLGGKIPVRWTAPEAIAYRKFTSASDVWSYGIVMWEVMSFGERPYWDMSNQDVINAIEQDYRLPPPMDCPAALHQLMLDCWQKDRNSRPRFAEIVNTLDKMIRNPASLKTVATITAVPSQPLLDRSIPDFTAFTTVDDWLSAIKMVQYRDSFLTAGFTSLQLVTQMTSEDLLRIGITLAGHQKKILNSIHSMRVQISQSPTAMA
ASSAY INFO: phosphorylation enrichment, bacterial display (enrichment ratio); higher = better substrate or ligand; peptides without Tyr show the background
Please give the numeric answer without any surrounding text.

Field phosphorylation enrichment (system: EPHB1 (UniProt P54762)) for entry KACKHYLTTRT [ZBTB5_Y118] = 0.46

Field phosphorylation enrichment (system: EPHB1 (UniProt P54762)) for entry IRTDAYVWAMT [RPE65_Y89_R91W] = 0.573

Field phosphorylation enrichment (system: EPHB1 (UniProt P54762)) for entry AVAFLYYKSIG [ADGRL4_Y301_V300L] = 0.555

Field phosphorylation enrichment (system: EPHB1 (UniProt P54762)) for entry SSEFHCVGGFF [CTSC_Y347_Y347C_YF] = 0.564

Field phosphorylation enrichment (system: EPHB1 (UniProt P54762)) for entry ALRHFYKLNII [ETV6_Y402_YF] = 0.522

Field phosphorylation enrichment (system: EPHB1 (UniProt P54762)) for entry REVKAYGAGLL [TH_Y419_G414R] = 0.487

Field phosphorylation enrichment (system: EPHB1 (UniProt P54762)) for entry KNSFKYYMSDD [ATRX_Y203_C200S] = 0.507

Field phosphorylation enrichment (system: EPHB1 (UniProt P54762)) for entry SFPPTYRFERG [INPPL1_Y661_YF] = 0.405

Field phosphorylation enrichment (system: EPHB1 (UniProt P54762)) for entry VFGVSYDEFRF [CFTR_Y512_I507V_YF] = 0.578

Field phosphorylation enrichment (system: EPHB1 (UniProt P54762)) for entry RTCSSYAIEKI [PARP15_Y520] = 0.532

Field phosphorylation enrichment (system: EPHB1 (UniProt P54762)) for entry FFRKFCNKSED [RYR1_Y4864_Y4864C] = 0.515

* * *

TARGET OR SYSTEM: EPHB2 (UniProt P29323)
Sequence (P29323 whole entry, looked up): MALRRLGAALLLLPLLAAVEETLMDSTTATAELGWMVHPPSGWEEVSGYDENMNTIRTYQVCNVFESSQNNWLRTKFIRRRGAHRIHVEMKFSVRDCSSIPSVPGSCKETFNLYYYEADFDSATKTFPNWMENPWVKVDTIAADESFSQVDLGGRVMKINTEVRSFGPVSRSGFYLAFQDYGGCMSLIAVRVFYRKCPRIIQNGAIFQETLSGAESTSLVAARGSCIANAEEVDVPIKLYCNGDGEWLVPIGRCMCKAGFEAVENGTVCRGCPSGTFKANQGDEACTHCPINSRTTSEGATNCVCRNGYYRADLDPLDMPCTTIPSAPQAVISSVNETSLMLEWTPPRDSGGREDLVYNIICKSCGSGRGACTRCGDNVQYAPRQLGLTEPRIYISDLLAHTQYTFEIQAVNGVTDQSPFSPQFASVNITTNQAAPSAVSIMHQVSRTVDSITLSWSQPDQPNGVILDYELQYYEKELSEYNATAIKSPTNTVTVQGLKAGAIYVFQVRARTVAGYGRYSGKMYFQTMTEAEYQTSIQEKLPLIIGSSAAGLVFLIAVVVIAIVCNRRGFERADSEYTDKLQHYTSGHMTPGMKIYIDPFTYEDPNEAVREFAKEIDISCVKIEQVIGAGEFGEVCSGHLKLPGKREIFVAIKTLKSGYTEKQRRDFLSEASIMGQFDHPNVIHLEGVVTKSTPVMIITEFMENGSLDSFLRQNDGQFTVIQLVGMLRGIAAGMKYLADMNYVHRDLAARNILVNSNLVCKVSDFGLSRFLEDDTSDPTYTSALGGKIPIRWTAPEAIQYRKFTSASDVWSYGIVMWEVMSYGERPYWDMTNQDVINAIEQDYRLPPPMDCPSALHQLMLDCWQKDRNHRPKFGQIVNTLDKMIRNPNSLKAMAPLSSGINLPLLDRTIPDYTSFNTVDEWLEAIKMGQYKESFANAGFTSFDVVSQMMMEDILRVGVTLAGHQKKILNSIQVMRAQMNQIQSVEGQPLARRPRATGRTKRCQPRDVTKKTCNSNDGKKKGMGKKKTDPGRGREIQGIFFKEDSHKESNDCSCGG
ASSAY INFO: phosphorylation enrichment, bacterial display (enrichment ratio); higher = better substrate or ligand; peptides without Tyr show the background
TEST READOUT: phosphorylation enrichment
Please give the numeric answer without any surrounding text.

Field phosphorylation enrichment (system: EPHB2 (UniProt P29323)) for entry LFMGDYVGRGF [PPP2CA_Y86_D88G_YF] = 1.48

Field phosphorylation enrichment (system: EPHB2 (UniProt P29323)) for entry GLRQGYFVEAQ [APCS_Y142] = 0.505

Field phosphorylation enrichment (system: EPHB2 (UniProt P29323)) for entry RNIQQYNSFVS [PRKAR1A_Y373] = 0.611

Field phosphorylation enrichment (system: EPHB2 (UniProt P29323)) for entry FSNKLYFQLEQ [PDPR_Y109_YF] = 0.664

Field phosphorylation enrichment (system: EPHB2 (UniProt P29323)) for entry SFTDPYAQPSL [KMT2D_Y2378_P2382S_YF] = 0.526

Field phosphorylation enrichment (system: EPHB2 (UniProt P29323)) for entry AHPIIYTIIEA [PYKtide_no-pT_2014] = 1.3

Field phosphorylation enrichment (system: EPHB2 (UniProt P29323)) for entry RTCSSYAIEKI [PARP15_Y520] = 0.702

Field phosphorylation enrichment (system: EPHB2 (UniProt P29323)) for entry LDTSQYFRLFN [CPT2_Y217_M214T] = 0.522

Field phosphorylation enrichment (system: EPHB2 (UniProt P29323)) for entry HFGNNYRDVLQ [MACC1_Y803_YF] = 0.627

Field phosphorylation enrichment (system: EPHB2 (UniProt P29323)) for entry GNEEAYGRSHI [FAM171B_Y522] = 0.438

Field phosphorylation enrichment (system: EPHB2 (UniProt P29323)) for entry VAFLYYKSIGP [ADGRL4_Y302_V300L] = 0.776

Field phosphorylation enrichment (system: EPHB2 (UniProt P29323)) for entry EFFENYIEELK [PARP4_Y218_F215Y_YF] = 0.669

Field phosphorylation enrichment (system: EPHB2 (UniProt P29323)) for entry DSGRDYVSQFE [APOA1_Y53] = 0.492

Field phosphorylation enrichment (system: EPHB2 (UniProt P29323)) for entry LLDGEYFTLQI [TP53_Y327_P322L] = 1.49

Field phosphorylation enrichment (system: EPHB2 (UniProt P29323)) for entry WASSSYRETPS [SORBS1_Y79_R74W] = 0.353

Field phosphorylation enrichment (system: EPHB2 (UniProt P29323)) for entry QDGYSYLSRQM [LDLR_Y847_P848L] = 0.467

Field phosphorylation enrichment (system: EPHB2 (UniProt P29323)) for entry ATPSRYMTFLH [DYNC2H1_Y2872] = 0.403

* * *

So I've got a bunch of sequences here, and I need their phosphorylation enrichment values.
Tested on: Fer (mouse)
ASSAY INFO: phosphorylation enrichment, bacterial display (enrichment ratio); higher = better substrate or ligand; peptides without Tyr show the background
Please give the numeric answer without any surrounding text.

Note to self: phosphorylation enrichment recorded for NELTYYCYKKD [CD59_Y87_C89Y] was 0.692

Note to self: phosphorylation enrichment recorded for LKKLEYLNLPL [LRRC6_Y70_A74P] was 0.47

Note to self: phosphorylation enrichment recorded for LSAPWYLNRIS [HEXA_Y421] was 0.359

Note to self: phosphorylation enrichment recorded for KFLENYLNCLL [PLD2_Y169_R172C_YF] was 0.532

All values here come from the supplement of paper PMC10065799.
